tested on: pooled donor, cryopreserved hepatocytes; assay: Hepatocyte intrinsic clearance assay; type: in vitro ADME, human; conditions: 0.1 μM, 2 h at 37° C., 1×10^6 hepatocytes/mL; * measured on 3 separate occasions, ** on a single occasion
Endpoint: CLint (mL/min/kg)

[1] Cc1c2c(nn1[C@H]1CCCOC1)OCCCn1nc(Cl)c3cnc(nc31)N2 (single isomer, unassigned) [Example 4]
[2] [2H]C([2H])([2H])c1c2c(nn1[C@@H]1CCCOC1)OCCCn1nc(Cl)c3cnc(nc31)N2 (single isomer, unassigned) [Example 60]
Problem: Which shows the larger CLint value: 1 or 2 ? Label of pick, please.
Solution: 1
(1: 14.5 mL/min/kg, 2: 8.5 mL/min/kg)

###

test: Minipig B/P (brain disposition); format: in vivo, female Gottingen minipigs; conditions: female, Gottingen, plasma, IV bolus 0.28 mg/kg + IV infusion 0.60 mg/kg, time point 1.00 h, mean ± stdev, n = 3, read-out: CTotal, plasma
Endpoint: concentration at 1 h (ng/mL)
# value in ng/mL; strip the unit string

Record "[2H]C([2H])([2H])c1c2c(nn1C1CCOCC1)OCCCn1nc(Cl)c3cnc(nc31)N2" , field concentration at 1 h: 91

###

test: Rat B/P (brain disposition); format: in vivo, male Sprague-Dawley rats; conditions: male, Sprague-Dawley, brain/plasma, po, 10 mg/kg, oral gavage 10 mg/kg, time point 0.5 h, fubrain from brain homogenate
Endpoint: Kp uu at 0.5 h
// return just the number, without any unit appended

response.value for CO[C@H]1CC[C@H](n2nc3c(c2C)Nc2ncc4c(Cl)nn(c4n2)CCCO3)CC1 [Example 37] (field: Kp uu at 0.5 h) = 0.47

###

experiment: Rat B/P (brain disposition); format: in vivo, male Sprague-Dawley rats; details: male, Sprague-Dawley, plasma, oral gavage 10 mg/kg, time point 1.0 h, mean ± stdev, n = 3, read-out: Total plasma concentration
Endpoint: concentration at 1 h (ng/mL)

A selection of reference data follows.
# Molecule, U, concentration at 1 h
records = [
    ("Cc1c2c(nn1[C@H]1CCCOC1)OCCCn1nc(Cl)c3cnc(nc31)N2 (single isomer, unassigned)", "ng/mL", 758),
    ("CCc1c2c(nn1C1CCOCC1)OCCCn1nc(Cl)c3cnc(nc31)N2", "ng/mL", 653),
    ("Cc1c2c(nn1[C@@H]1CCOC[C@H]1F)OCCCn1nc(Cl)c3cnc(nc31)N2 (single isomer, unassigned)", "ng/mL", 133),
]

[P] Cc1c2c(nn1C1CCOCC1)OCCCn1nc(C(F)(F)F)c3cnc(nc31)N2
[Q] Cc1c2c(nn1[C@@H]1CCO[C@H](C)C1)OCCCn1nc(Cl)c3cnc(nc31)N2 (single isomer, unassigned)
Problem: Between the entries labelled P and Q , which has a larger concentration at 1 h value on record? State the label of the item chosen.
Solution: Q
(Q: 636 ng/mL, P: 336 ng/mL)

[1] Cc1c2c(nn1C1CCOCC1)OCCCn1nc(C3CC3)c3cnc(nc31)N2
[2] Cc1c2c(nn1[C@H]1CC[C@H](F)CC1)OCCCn1nc(Cl)c3cnc(nc31)N2
Problem: Given the listed records, identify the one among 1 and 2 with higher concentration at 1 h. I would appreciate it if you answered with the label of your choice.
Solution: 1
(1: 1550 ng/mL, 2: 38 ng/mL)
